Reference source for all entries: the Kinase Knowledgebase extract (Sharma et al. 2016)

Here's what we have: pIC50 numbers for CDK2 (UniProt P24941).
pIC50: −log10 of the molar value.

SAMPLE_SMILES	OBS_VALUE
COc1ccc2c(-c3ccnc(NC4CC4)n3)cnn2n1	> 6.00
N#Cc1cccc(Nc2nccc(-c3cnn4ncccc34)n2)c1	> 7.00
c1cc(Nc2nccc(-c3cnn4ncccc34)n2)cc(-c2cnco2)c1	> 7.00
CN(C)c1ccc(Nc2nccc(-c3cnn4nc(N5CCOCC5)ccc34)n2)cc1	> 6.00
O=[N+]([O-])c1cccc(Nc2nccc(-c3cnn4ncccc34)n2)c1	> 7.00
Cc1cc(Nc2nccc(-c3cnn4ncccc34)n2)ccc1N1CCN(C)CC1	> 7.00
Clc1ccccc1-c1ccc2c(-c3ccnc(NC4CC4)n3)cnn2n1	> 6.00
CN1CCN(c2ccc(Nc3nccc(-c4cnn5ncccc45)n3)cc2Cl)CC1	> 7.00

Let's switch to this molecule now.
Problem: Notebook entry, CDK2 (UniProt P24941) assay: pIC50 of `NS(=O)(=O)c1ccc(Nc2nccc(-c3cnn4ncccc34)n2)cc1` = ?
Result: > 7.00
